- Assay target: T1, human common cytokine receptor γ-chain (IL-2Rγ) (human, UniProt P31785 23-262, limits assumed)
- T1 construct: Recombinant human IL-2Rγ protein, coated (ELISA) or amine-coupled to a CM5 chip (SPR); also called hu IL-2R; CD132
- T1 sequence: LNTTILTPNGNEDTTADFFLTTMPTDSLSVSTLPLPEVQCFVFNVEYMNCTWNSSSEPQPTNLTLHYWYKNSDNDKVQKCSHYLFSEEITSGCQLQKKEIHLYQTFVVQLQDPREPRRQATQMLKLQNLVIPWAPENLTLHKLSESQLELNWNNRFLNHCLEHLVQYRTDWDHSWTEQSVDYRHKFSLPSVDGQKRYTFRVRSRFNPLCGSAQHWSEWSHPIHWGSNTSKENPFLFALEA
- Test protocol: P.E. off-rate SPR
- Experimental: SPR was performed to determine dissociation rates using Biacore 3000 instrument (GE Healthcare). Briefly, human and mouse IL-2R proteins were immobilized on carboxylmethyl dextran sensor chip (CM5) at approximately 2500 RUs using amine coupling in acetate buffer (GE Healthcare). The VHH-containing P.E. were loaded with a flow rate of 30 uL/min and the off-rates were measured over a 120s period.
Quantity measured: koff (s⁻¹)
Number only, in s⁻¹; omit the unit.

Consider the reported koff for these binders:
Binder	Readout unit	koff
FJ1427_P035MP07B10 (VHH, tested as periplasmic extract; also called Clone nr; 650) VHH: QVQLVESGGGLVQAGGSLRLSCAASGRTLSRYAMGWFRQAPGKEREFVAADSWGGDTFYADSVEGRFTFSRDNAKNAAYLQMNSLQPEDTATYYCAGAPTSFATTAYSSSNSYRYWGQGTQVTVSS	s⁻¹	0.00175
FJ1427_P035MP07C04 (VHH, tested as periplasmic extract; also called Clone nr) VHH: QVQLVESGGGVVQAGGSLRLSCAASGRTLSRYAMGWFRQAPGKEREFVTANSWGGDTYYADSVQGRFTFSRDNAKNTVYLQMNSLQPEDTAVYYCAAAPTSFATTAYSSSNSYAYWGQGTQVTVSS	s⁻¹	0.00267
FJ1427_P035MP07A09 (VHH, tested as periplasmic extract; also called Clone nr) VHH: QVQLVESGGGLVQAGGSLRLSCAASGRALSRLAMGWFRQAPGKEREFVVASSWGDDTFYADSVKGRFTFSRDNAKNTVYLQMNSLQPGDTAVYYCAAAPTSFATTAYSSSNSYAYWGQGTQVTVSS	s⁻¹	0.00161

stdin: May I ask what koff has been recorded for FJ1427_P035MP07C01 (VHH, tested as periplasmic extract; also called Clone nr) VHH: QVQLVESGGGLVQAGDSLRLSCVASGRTLSRCAMGWFRKAPGKEREYVAISSWGGDTFYEDSVEGRFTFSRDNAKNTVYLQMNSLRPEDTAVYYCAAAPTSFATTAYSSSNSYAYWGQGTQVTVSS ?
stdout: 0.00113
